The reported measurements were obtained from patent US20220409629A1.

Overview of reported half-life across a group of compounds:
# Measurement protocol: Liver microsomal stability, dog
# Assay type: in vitro ADME
# Experimental setup: pH 7.4; dog liver microsomes, 0.5 mg/mL protein, 1 μM compound, NADPH; >80% remaining at 45 min denoted >140; read-out: Liver Microsomal Stability: t1/2 (min); dog
Answer with a number only, understood to be in min.

// below: answered compounds
Recorded half-life for CCc1ccc(-c2c(C(=O)N[C@H]3N=C(c4ccccc4)c4cccc(F)c4NC3=O)cnn2C2CCOCC2)c(F)n1 , please?
183

Entry CC(C)n1ncc(C(=O)N[C@H]2N=C(c3ccccc3)c3ccccc3NC2=O)c1-c1ccc(NC2CC2)nc1F : reported half-life = ?
22.2

Could you share which half-life value was measured for CCc1ccc(-c2c(C(=O)N[C@H]3N=C(c4ccccc4)c4cccc(F)c4NC3=O)cnn2C2CCOCC2)c(F)c1 ?
81.4

More entries:
Endpoint output: half-life of CCn1ncc(C(=O)N[C@H]2N=C(c3ccccc3)c3ccccc3NC2=O)c1-c1ccc(NC2(C)CC2)nc1F . Value?
72.5

Field request: half-life | item: O=C(N[C@H]1N=C(c2ccccc2)c2cccc(F)c2NC1=O)c1cnn(C2CCOCC2)c1-c1cc(C2CC2)cnc1F
212

I am curious: what half-life value has been reported for O=C(N[C@H]1N=C(c2ccccc2)c2cccc(F)c2NC1=O)c1cnn(C2COC2)c1-c1ccc(NC2CC2)nc1F ?
90.8

Requested field: half-life. Item: CCNc1ccc(-c2c(C(=O)N[C@H]3N=C(c4ccccc4)c4cccc(F)c4NC3=O)cnn2C2CCOCC2)c(F)n1
198

Record request: half-life value, item O=C(N[C@H]1N=C(c2ccccc2)c2cccc(F)c2NC1=O)c1cnn(C2CCOCC2)c1-c1ccc(NC2CC2)nc1F
124

###

# Measurement protocol: Liver microsomal stability, dog
# Type: in vitro ADME
# Experimental setup: pH 7.4; dog liver microsomes, 0.5 mg/mL protein, 1 μM compound, NADPH; >80% remaining at 45 min denoted >140; read-out: Liver Microsomal Stability: t1/2 (min); dog
Please use YES for half-life under 50 min and NO for everything else, ties included.

The examples below pair each entry with its known result.
Is half-life of O=C(N[C@H]1N=C(c2ccccc2)c2ccccc2NC1=O)c1cnn(C2CCOCC2)c1-c1cc(C2CC2)cnc1F strictly below 50 min?
NO

Is half-life of CCn1ncc(C(=O)N[C@H]2N=C(c3ccccc3)c3ccccc3NC2=O)c1-c1ccc(NC2CCC2)nc1F strictly below 50 min?
YES

***
Please check: half-life for O=C(N[C@H]1N=C(c2ccccc2)c2ccccc2NC1=O)c1cnn(C2COC2)c1-c1ccc(NC2CC2)nc1F , strictly under 50 min or not?
NO

Record CCn1cc(C(=O)N[C@H]2N=C(c3ccccc3)c3ccccc3NC2=O)c(-c2ccc(NC3CC3)nc2F)n1 : is its half-life strictly below 50 min?
YES

Could you please tell me whether half-life recorded for CCn1cc(C(=O)N[C@H]2N=C(c3ccccc3)c3cccc(F)c3NC2=O)c(-c2ccc(NC3CC3)nc2F)n1 is less than 50 min?
YES

Lab note: half-life threshold 50 min. Does this molecule come in strictly under it? CCn1ncc(C(=O)N[C@H]2N=C(c3ccccc3)c3cccc(F)c3NC2=O)c1-c1ncc(NC(C)C)cc1F
NO
